B1: ZNF449 (parent)
chain: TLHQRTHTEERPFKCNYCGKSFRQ

Variants of: B1
Test: protein stability index of a GFP-peptide fusion (GPS, HEK-293T) (PSI 1-6); higher = more stable;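 note: lentivirally expressed fusions sorted by FACS into six bins by GFP to DsRed ratio, PSI derived from sequencing read proportions per bin multiplied by bin number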
Details: c terminus: a fixed tail appended
Consider the following variants and their measured protein stability index readings.
Enter a number only.

Please review the following examples before continuing.
# Construct sequence, protein stability index
rows = [
    ("TIHQRTHTEERPFKCNYCGKSFRQ [L2I]", 2.17),
    ("TLHQRTHTEERPFKCNYCGKSFPQ [R23P]", 2.58),
    ("TLHQRTHTEERPFKCNYCGWSFRQ [K20W]", 1.88),
    ("TLHQRTHTEERPFKCNYCGGSFRQ [K20G]", 1.61),
    ("TLHQRTHTEERPQKCNYCGKSFRQ [F13Q]", 2.92),
]

Given the variant TLHQRTHTEERPFMCNYCGKSFRQ [K14M] , write its reported protein stability index.
2.2

Give recorded protein stability index. TLHQRTHTEESPFKCNYCGKSFRQ [R11S]
2.25

Assign protein stability index to the following record: TLHQRTHTEERPFKCNYCEKSFRQ [G19E]
2.68

Using known records, supply protein stability index for TLHQRTHTEERPFKCNRCGKSFRQ [Y17R]
2.92

Could you please provide reported protein stability index for MLHQRTHTEERPFKCNYCGKSFRQ [T1M] ? Thanks!
2.39

Annotate the variant TLHQRTHTEERPFKCNYCTKSFRQ [G19T] with its measured protein stability index.
2.4

Specify protein stability index for TLHQRTHTEERPFKCNYCGKSDRQ [F22D] and stop.
3.12

Give the value of protein stability index reported for the following: TLAQRTHTEERPFKCNYCGKSFRQ [H3A]
2.76

// fetch protein stability index given entry TLHVRTHTEERPFKCNYCGKSFRQ [Q4V]
2.38

Using the record for TLHQRTHTEERPFKCNYCGKEFRQ [S21E] , state its measured protein stability index.
3.13

Annotate the variant TLHQRTRTEERPFKCNYCGKSFRQ [H7R] with its measured protein stability index.
2.48

Fill in protein stability index for record TLHQRTHTEERPFKCNYCGKSNRQ [F22N]
3.51

Give a short answer stating reported protein stability index for TLHQRQHTEERPFKCNYCGKSFRQ [T6Q] .
2.54

Give the reported value of protein stability index for this record: TLHQRTHTEERPFKCNYCGDSFRQ [K20D]
2.83

Report measured protein stability index; entry is GLHQRTHTEERPFKCNYCGKSFRQ [T1G]
2.89

// Input: TLHQRTHTAERPFKCNYCGKSFRQ [E9A] . Output its protein stability index only.
2

Give me measured protein stability index, please, for this variant: TLHQRTHTEERPFKCNYCGYSFRQ [K20Y]
1.9

Entry TLHQRTHTEERPFKCPYCGKSFRQ [N16P] needs its protein stability index filled in; supply it.
3.32
